Test system: PfAP2-LT AP2 domain (GST-tagged)
Assay: gcPBM binding intensity (ln(normalized median fluorescence intensity)); higher = stronger DNA binding
Whole data set: some 25,000 sequences, median “ln(normalized median fluorescence intensity)” near 8.9, cut for the highest 2% near 10. Only a selection was taken, and the highest values are over-represented in it overall.
Measured gcPBM binding intensity (ln) by item
Please give the numeric answer without any surrounding text.

Reference set (3 entries):
CTTCATAAAAATTGCACACATATAATAATGTACATA [CACACA_site2212] = 8.96
GAGAAAAATAAATACACACACATAAATAAATACATA [CACACA_site5102] = 9.74
TTTAAAACCTTACATACACACAAATATGTAAATATA [CACACA_site6464] = 8.75

Incoming: Any idea what its gcPBM binding intensity (ln) is? The sequence is AAAATACACGCATACACACACACACCGACACATATA [CACACA_site4523]
Outgoing: 10.4

Incoming: Any idea what its gcPBM binding intensity (ln) is? The sequence is TATATATATATATATGTGCACATTTATTGCCTTTGC
Outgoing: 10.1

Incoming: Any idea what its gcPBM binding intensity (ln) is? The sequence is TTTTATTTATCATACACACACAGAAAAAAAAAAAAA [CACACA_site158]
Outgoing: 8.89

Incoming: Any idea what its gcPBM binding intensity (ln) is? The sequence is TTTCTTTTTTTTTTTTTTTCTGGCTTTTTCTCTTTT [TGCATGCA_negctrl_site599]
Outgoing: 8.69

Incoming: Any idea what its gcPBM binding intensity (ln) is? The sequence is TGATTTGTGCCGATTTGTACACATTTATATATATAT [XGTACX_site2154]
Outgoing: 9.13

Incoming: Any idea what its gcPBM binding intensity (ln) is? The sequence is CACAGACACGGACACACACACACACCCAGACACATA [CACACA_site4357]
Outgoing: 10.1

Incoming: Any idea what its gcPBM binding intensity (ln) is? The sequence is AAAAAAAACGAACACACACACAAATATGTAAAAATA [CACACA_site6673]
Outgoing: 9.87

Incoming: Any idea what its gcPBM binding intensity (ln) is? The sequence is ATAATTTTATATAAATGTACATACATTTTTATTATA [XGTACX_site7368]
Outgoing: 8.61

Incoming: Any idea what its gcPBM binding intensity (ln) is? The sequence is AATATCAATGATGTTACATGCAAGAGAATCCACAAA [TGCATGCA_site678]
Outgoing: 8.96

Incoming: Any idea what its gcPBM binding intensity (ln) is? The sequence is ACATATTATATATGTGTGCACATATATATATATTTA [GTGCAC_site9591]
Outgoing: 9.7

Incoming: Any idea what its gcPBM binding intensity (ln) is? The sequence is ATAAAAATTTAAAAAGAACACACGAAAGAAGGACTT [CACACA_site3929]
Outgoing: 9.01

Incoming: Any idea what its gcPBM binding intensity (ln) is? The sequence is TTGGCATACGGACACACACACACACCCAGACATATA [CACACA_site4492]
Outgoing: 9.84

Incoming: Any idea what its gcPBM binding intensity (ln) is? The sequence is CTTTATATATATTGCGTGCACATTTTTTTTTTTTTT
Outgoing: 8.99

Incoming: Any idea what its gcPBM binding intensity (ln) is? The sequence is TTTTTTTTTGAAAAAAGTACTTAATTTTTAAGAAGA [XGTACX_site3591]
Outgoing: 7.83

Incoming: Any idea what its gcPBM binding intensity (ln) is? The sequence is TTTATTTTATCATTTGCACACGCACCCAGACATAAA [CACACA_site4347]
Outgoing: 9.19

Incoming: Any idea what its gcPBM binding intensity (ln) is? The sequence is CAAGCACCCAGACACACACACACACCCACACCCACA [CACACA_site369]
Outgoing: 10.1

Incoming: Any idea what its gcPBM binding intensity (ln) is? The sequence is ACCATGAAAATATTATGTACATATGTATTATATATA [XGTACX_site408]
Outgoing: 8.87

---

Tested on: PfAP2-LT AP2 domain (GST-tagged)
Assay: gcPBM binding intensity (ln(normalized median fluorescence intensity)); higher = stronger DNA binding
Whole data set: some 25,000 sequences, median “ln(normalized median fluorescence intensity)” near 8.9, cut for the highest 2% near 10. This is one part of a sample in which the highest values are shown more often than they occur.
Lab note: compare gcPBM binding intensity (ln) against 9. Equal or greater, write yes (1). Smaller, write no (0).

AAATTTGGCAAACACACACACACACCCACACCCACA [CACACA_site8095] = yes (1)
AAATTTGGCAAACACACACACACACCCACAGAGACA [CACACA_site4490] = yes (1)

Incoming: Tell me whether gcPBM binding intensity (ln) is at least 9 here: ATATATATATTTTTATGAGGCATAAGTAATATTTTT [TGCATGCA_negctrl_site317]
Outgoing: no (0)

Incoming: Tell me whether gcPBM binding intensity (ln) is at least 9 here: TGTGAATATATCTTTAAAAAGGATAAATAATAATTT [CACACA_negctrl_site507]
Outgoing: no (0)

Incoming: Tell me whether gcPBM binding intensity (ln) is at least 9 here: TATATATTCATATGTTGTACATAAATACAAATAAGA [XGTACX_site5602]
Outgoing: no (0)

Incoming: Tell me whether gcPBM binding intensity (ln) is at least 9 here: TATGCACGCGAACACACACACACAACTAAAAAATAA [CACACA_site7251]
Outgoing: yes (1)

---

Tested on: PfAP2-LT AP2 domain (GST-tagged)
Assay: gcPBM binding intensity (ln(normalized median fluorescence intensity)); higher = stronger DNA binding
Whole data set: some 25,000 sequences, median “ln(normalized median fluorescence intensity)” near 8.9, cut for the highest 2% near 10. The entries come from a sample that favours the highest values as a whole.
Measured gcPBM binding intensity (ln) by item
Please give the numeric answer without any surrounding text.

Reference set (6 entries):
ATAATTAACAAATACACACACACACGCCCACAAAAA [CACACA_site6389] = 10
ACTAAATAAATAAATATAATATATAAATATGTATGT [TGCATGCA_negctrl_site583] = 8.78
CATATATATATATATTGTACAAGATTGTTTTTTTAT [XGTACX_site3913] = 8.79
TACATACATACATACACACACATATAGATTTATATA [CACACA_site6999] = 9.48
AAAAAAAAAAAACATACACACACACTAATATTTATA [CACACA_site8038] = 9.6
AAAACAAACCCATTTACACACATAAATAAATCAATT [CACACA_site6126] = 9.38

Incoming: Any idea what its gcPBM binding intensity (ln) is? The sequence is AACAATCAAATAGACACACACACACCCAAACATAAA [CACACA_site2757]
Outgoing: 10.1

Incoming: Any idea what its gcPBM binding intensity (ln) is? The sequence is TGAACAACTATTACTGCACACATTCTTACACTATAT [CACACA_site4533]
Outgoing: 9.41

Incoming: Any idea what its gcPBM binding intensity (ln) is? The sequence is AAATGGGCTTATTTATGTACTTAAATATATCTACCC [XGTACX_site3823]
Outgoing: 8.85

---

System: PfAP2-LT AP2 domain (GST-tagged)
Assay: gcPBM binding intensity (ln(normalized median fluorescence intensity)); higher = stronger DNA binding
The full ranking holds about 25,000 sequences; the median of “ln(normalized median fluorescence intensity)” is about 8.9, and the highest 2% start at about 10. The sample as a whole holds a higher share of the highest values than the screen did.
Measured gcPBM binding intensity (ln) by item
Please give the numeric answer without any surrounding text.

AAAAAAAAAAGACACACACACATATAAATATAAATA [CACACA_site6899] = 9.81
AATATAAAAAAAAAAAAAAAAAAAAAAAAAAAGACA [CACACA_negctrl_site983] = 8.66
ATACCTTCTTTTATGTTTAATTAATATACTTTTTAT [CACACA_negctrl_site1557] = 8.96
ATAAAAAAAGGACACACACACATATATATATATATA [CACACA_site5662] = 10.5

Incoming: Any idea what its gcPBM binding intensity (ln) is? The sequence is CATATAAAAGGACACACACACACATATAAATATGTA [CACACA_site6568]
Outgoing: 9.88

Incoming: Any idea what its gcPBM binding intensity (ln) is? The sequence is AAAAAAAAAAGACACACACACACATAAATATAAATA [CACACA_site6215]
Outgoing: 10.2

Incoming: Any idea what its gcPBM binding intensity (ln) is? The sequence is CACACGCACGAACACACACACACACGCATATAAATA [CACACA_site6302]
Outgoing: 10.2

Incoming: Any idea what its gcPBM binding intensity (ln) is? The sequence is ATAAAAAAAAGACACACACACATATATATATATATA [CACACA_site3073]
Outgoing: 10.2

Incoming: Any idea what its gcPBM binding intensity (ln) is? The sequence is ATTTAAATAATATGTACACACATTTAAAAAATTATA [CACACA_site2816]
Outgoing: 8.76
